Data origin, for the record: patent US10167299B2

assay: Pharmacokinetic experiment on Beagles; settings: male, beagle, dog, plasma, po, 15 mg/kg
Endpoint Name: MRT (h)
Field: numeric (h). Do not append units.

Need MRT of Cc1nnc(C(C)C)n1C1CC2CCC(C1)N2CC[C@H](NC(=O)C1CCC(F)(F)CC1)c1ccsc1 (stereo partly shown) [Compound 22] , thanks.
2.11

* * *

test: Toxicity test of compounds on PBMC cells (MTT); type: cell-based; details: human; PBMC cells (Table 4)
Endpoint Name: CC50 at 7 days (µg/mL)
Kindly answer with a numeric value in µg/mL, unit omitted.

Data request, read-out CC50 at 7 days, for Cc1nnc(C(C)C)n1C1CC2CCC(C1)N2CCC(NC(=O)C1CCC(F)(F)CC1)c1cccs1 (centres unmarked)
273

Give its CC50 at 7 days value. Item: Cc1nnc(C(C)C)n1C1CC2CCC(C1)N2CC[C@H](NC(=O)C1CCC(F)(F)CC1)c1ccsc1 (some centres unmarked)
635

Could you tell me which CC50 at 7 days is on file for Cc1nnc(C(C)C)n1C1CC2CCC(C1)N2CC[C@H](NC(=O)C1CCCC1)c1cccs1 (some centres unmarked) ?
345

Reported CC50 at 7 days for Cc1nnc(C(C)C)n1C1CC2CCC(C1)N2CC[C@H](NC(=O)C1CCCCC1)c1cccs1 (some centres unmarked) : what is it?
267
